experimental.target: Mu-type opioid receptor (Mus musculus)
Sequence (P42866 whole entry): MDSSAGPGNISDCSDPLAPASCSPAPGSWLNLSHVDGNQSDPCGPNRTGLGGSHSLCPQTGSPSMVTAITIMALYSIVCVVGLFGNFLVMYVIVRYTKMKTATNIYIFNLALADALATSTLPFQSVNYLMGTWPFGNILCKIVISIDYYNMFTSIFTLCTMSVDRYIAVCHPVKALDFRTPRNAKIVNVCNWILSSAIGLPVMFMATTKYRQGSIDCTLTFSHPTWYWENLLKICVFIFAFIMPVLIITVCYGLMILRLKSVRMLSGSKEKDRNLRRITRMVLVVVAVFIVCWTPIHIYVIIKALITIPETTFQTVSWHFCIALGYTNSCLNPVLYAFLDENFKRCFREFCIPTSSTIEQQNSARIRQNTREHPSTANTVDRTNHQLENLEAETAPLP
experiment.description: Agonist activity at mouse mu opioid receptor-1 expressed in CHO cell membranes assessed as [35S]GTPgammaS binding incubated for 60 mins by scintillation spectroscopic analysis
Param label: returns TRUE when EC50 < 2 nM, returns FALSE otherwise, including exact equality.

Quick check: does `CC[C@@H]1CN2CC[C@@]3(O)C(=Nc4cccc(OC)c43)[C@@H]2C[C@@H]1/C(=C\OC)C(=O)OC` have EC50 under 2 nM?
FALSE

Does the reported EC50 of the following compound sit strictly below 2 nM? `CC[C@@H]1CN2CC[C@]3(Nc4cccc(C#N)c4C3=O)[C@@H]2C[C@@H]1/C(=C\OC)C(=O)OC`
TRUE

Please check: EC50 for `CC[C@@H]1CN2CC[C@]3(Nc4cccc(-c5ccccc5)c4C3=O)[C@@H]2C[C@@H]1/C(=C\OC)C(=O)OC` , strictly under 2 nM or not?
TRUE

Decide: EC50 of `CC[C@@H]1CN2CC[C@]3(Nc4cccc(OC(C)=O)c4C3=O)[C@@H]2C[C@@H]1/C(=C\OC)C(=O)OC` strictly below 2 nM?
FALSE

Please state whether EC50 is below 2 nM for `CC[C@@H]1CN2CC[C@]3(Nc4cccc(OC)c4C3=O)[C@@H]2C[C@@H]1/C(=C\OC)C(=O)OC`
TRUE

Strictly below 2 nM in EC50? `CC[C@@H]1CN2CC[C@]3(Nc4ccccc4C3=O)[C@@H]2C[C@@H]1/C(=C\OC)C(=O)OC`
TRUE

Dear colleague, could you confirm whether EC50 of `CC[C@@H]1CN2CC[C@]3(Nc4cccc(-c5ccoc5)c4C3=O)[C@@H]2C[C@@H]1/C(=C\OC)C(=O)OC` falls below 2 nM? Thanks.
TRUE

Cited source: ChEMBL document CHEMBL4428076
